PROTOCOL: Drug concentration in Sprague-Dawley rat lung homogenate at 1 mg/kg, IT measured after 24 hrs by LC/MS/MS analysis
Assay type: ADME, organism-based
CONDITION_DETAILS: read-out: Ct
MEASURED_QUANTITY: concentration at 24 h (µM)
Give just the number in µM; leave the unit off.

Prompt: // Input: Cc1ccc(-n2nc(C(C)(C)C)cc2NC(=O)N[C@H]2CC[C@@H](Oc3ccc4nnc(C(C)C)n4c3)c3ccccc32)cc1 . Output its concentration at 24 h only.
Completion: 29.8

----------
SUBJECT_OF_TEST: Mitogen-activated protein kinase 14 (Homo sapiens, UniProt Q16539)
Sequence (Q16539 whole entry): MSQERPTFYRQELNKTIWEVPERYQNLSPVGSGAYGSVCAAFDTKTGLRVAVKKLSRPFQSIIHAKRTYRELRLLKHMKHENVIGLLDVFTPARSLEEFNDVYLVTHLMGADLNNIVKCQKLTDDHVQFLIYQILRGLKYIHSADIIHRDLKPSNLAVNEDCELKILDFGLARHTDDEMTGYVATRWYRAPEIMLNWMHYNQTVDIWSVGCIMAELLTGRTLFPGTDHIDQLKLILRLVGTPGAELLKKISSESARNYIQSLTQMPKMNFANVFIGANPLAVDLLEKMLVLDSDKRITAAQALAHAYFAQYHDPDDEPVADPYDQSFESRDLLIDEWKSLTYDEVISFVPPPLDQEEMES
PROTOCOL: Displacement of SKF-86002 from human inactivated p38alpha assessed as dissociation half life incubated for 2 hrs by fluorescence based analysis
The following compounds are listed with their measured T1/2 values.
Give just the number in h; leave the unit off.

Use the examples below as a reference point.
# SMILES_RECORD, VALUE_UNITS, T1/2
data = [
    ("C[C@H]1CCCCN1c1nnc2ccc(O[C@@H]3CC[C@H](NC(=O)Nc4cc(C(C)(C)C)nn4-c4ccn(CCN(C)C)n4)c4ccccc43)cn12", "h", 1.9),
    ("CC(C)(C)c1cc(NC(=O)N[C@H]2CC[C@@H](Oc3ccc4nnc(N5CCCCC5)n4c3)c3ccccc32)n(-c2cccc(CN3CCCCC3)c2)n1", "h", 1.2),
]

Could you now look at the following compound, please?
Prompt: // Input: CC(C)c1nnc2ccc(O[C@@H]3CC[C@H](NC(=O)Nc4cc(C(C)(C)C)nn4-c4cccc(OCCN(C)C)c4)c4ccccc43)cn12 . Output its T1/2 only.
Completion: 0.89

----------
PROTOCOL: Terminal half life in Sprague-Dawley rat lung homogenate at 0.03 mg/kg, IT measured after 24 hrs by LC/MS/MS analysis
Format: ADME, organism-based
CONDITION_DETAILS: read-out: beta t1/2
MEASURED_QUANTITY: half-life

Prompt: // Input: Cc1ccc(-n2nc(C(C)(C)C)cc2NC(=O)N[C@H]2CC[C@@H](Oc3ccc4nnc(C(C)C)n4c3)c3ccccc32)cc1 . Output its half-life only.
Completion: > 24 h

----------
SUBJECT_OF_TEST: Mitogen-activated protein kinase 14 (Homo sapiens, UniProt Q16539)
PROTOCOL: Displacement of SKF-86002 from human inactivated p38alpha assessed as dissociation half life incubated for 2 hrs by fluorescence based analysis
So basically, if T1/2 comes in under 5 h it's Satisfied, and if it's 5 h or more it's Not satisfied.

Example cases with answers are listed next.
# SMILES_RECORD, SUBJECT_OF_TEST, LABEL
measured = [
    ("CC(C)c1nnc2ccc(O[C@@H]3CC[C@H](NC(=O)Nc4cc(C(C)(C)C)nn4C)c4ccccc43)cn12", "Mitogen-activated protein kinase 14 (Homo sapiens, UniProt Q16539)", "Satisfied"),
    ("CCN(C)CCn1cc(-n2nc(C(C)(C)C)cc2NC(=O)N[C@H]2CC[C@@H](Oc3ccc4nnc(N5CCCC[C@@H]5C)n4c3)c3ccccc32)cn1", "Mitogen-activated protein kinase 14 (Homo sapiens, UniProt Q16539)", "Not satisfied"),
    ("CC(C)c1nnc2ccc(O[C@@H]3CC[C@H](NC(=O)Nc4cc(C(C)(C)C)nn4-c4ccc(Cl)c(O)c4)c4ccccc43)cn12", "Mitogen-activated protein kinase 14 (Homo sapiens, UniProt Q16539)", "Satisfied"),
]

Prompt: Would you kindly verify if T1/2 of COCCN(C)CCn1cc(-n2nc(C(C)(C)C)cc2NC(=O)N[C@H]2CC[C@@H](Oc3ccc4nnc(N5CCCC[C@@H]5C)n4c3)c3ccccc32)cn1 is strictly less than 5 h?
Completion: Not satisfied

Prompt: Would you kindly verify if T1/2 of Cc1ccc(-n2nc(C(C)(C)C)cc2NC(=O)N[C@H]2CC[C@@H](Oc3ccc4nnc(N5CCOCC5)n4c3)c3ccccc32)cc1 is strictly less than 5 h?
Completion: Not satisfied

Prompt: Would you kindly verify if T1/2 of C[C@H]1CCCCN1c1nnc2ccc(O[C@@H]3CC[C@H](NC(=O)Nc4cc(C(C)(C)C)nn4-c4cccc(OCCN(C)C)c4)c4ccccc43)cn12 is strictly less than 5 h?
Completion: Not satisfied

Prompt: Would you kindly verify if T1/2 of C[C@@H]1CCC[C@H](C)N1c1nnc2ccc(O[C@@H]3CC[C@H](NC(=O)Nc4cc(C(C)(C)C)nn4-c4cnn(CCN(C)C)c4)c4ccccc43)cn12 is strictly less than 5 h?
Completion: Not satisfied

Prompt: Would you kindly verify if T1/2 of CC(C)c1nnc2ccc(O[C@@H]3CC[C@H](NC(=O)Nc4cc(C(C)(C)C)nn4-c4ccc(O)c(Cl)c4)c4ccccc43)cn12 is strictly less than 5 h?
Completion: Satisfied
